test: Half life in Beagle dog plasma at 5 mg/kg,SC and measured after 21 days by LC-MS/MS analysis; format: ADME, organism-based, Canis lupus familiaris; settings: time 21 day
measurement.type: half-life
Respond with a number, then the unit of measure.

Ask | Would you mind telling me what half-life value was observed for `C[C@@H]1CN(c2ccc3c(=O)n(-c4ccc(Cl)c5c(NS(C)(=O)=O)nn(C)c45)c([C@H](Cc4cc(F)cc(F)c4)NC(=O)Cn4nc(C(F)F)c5c4C(F)(F)[C@@H]4C[C@H]54)nc3c2)C[C@H](C)O1` ?
Reply | 39 h

---

experiment: Solubility of the compound at pH 6.5 buffer; assay type: physicochemical
measurement.type: solubility

Ask | Would you mind telling me what solubility value was observed for `C[C@@H]1CN(c2ccc3c(=O)n(-c4ccc(Cl)c5c(NS(C)(=O)=O)nn(C)c45)c([C@H](Cc4cc(F)cc(F)c4)NC(=O)Cn4nc(C(F)F)c5c4C(F)(F)[C@@H]4C[C@H]54)nc3c2)C[C@H](C)O1` ?
Reply | < 1 µg/mL

---

assay: Plasma concentration in Wistar Han rat at 20 mg/kg, SC and measured at 21 days by LC-MS/MS analysis; format: ADME, organism-based; conditions: time 21 day
measurement.type: concentration at 504 h

Ask | Would you mind telling me what concentration at 504 h value was observed for `C[C@@H]1CN(c2ccc3c(=O)n(-c4ccc(Cl)c5c(NS(C)(=O)=O)nn(C)c45)c([C@H](Cc4cc(F)cc(F)c4)NC(=O)Cn4nc(C(F)F)c5c4C(F)(F)[C@@H]4C[C@H]54)nc3c2)C[C@H](C)O1` ?
Reply | 10 ng/mL

---

Below, each entry is listed alongside its reported CC50.
system: MT2; assay: Cytotoxicity against human MT2 cells assessed as reduction in cell viability incubated for 4 days by XTT assay; type: toxicity, cell-based; conditions: mt2, 96 h, 96 h, time 4 day

Solved cases below.
compound | measurement.target | CC50
COc1ccc2c(=O)n(-c3ccc(Cl)c4c(NS(C)(=O)=O)nn(C)c34)c([C@H](Cc3cc(F)cc(F)c3)NC(=O)Cn3nc(C(F)F)c4c3C(F)(F)[C@@H]3C[C@H]43)nc2c1 (stereo in doubt; 13b) | MT2 | > 1 µM
COc1cccc2nc([C@H](Cc3cc(F)cc(F)c3)NC(=O)Cn3nc(C(F)F)c4c3C(F)(F)[C@@H]3C[C@H]43)n(-c3ccc(Cl)c4c(NS(C)(=O)=O)nn(C)c34)c(=O)c12 (stereo in doubt; 13d) | MT2 | > 1 µM
Cn1nc(NS(C)(=O)=O)c2c(Cl)ccc(-n3c([C@H](Cc4cc(F)cc(F)c4)NC(=O)Cn4nc(C(F)F)c5c4C(F)(F)[C@@H]4C[C@H]54)nc4ccccc4c3=O)c21 (stereo in doubt; 12a) | MT2 | > 20 µM
COc1ccc2c(=O)n(-c3ccc(Cl)c4c(NS(C)(=O)=O)nn(C)c34)c([C@H](Cc3cc(F)cc(F)c3)NC(=O)Cn3nc(C(F)F)c4c3C(F)(F)[C@@H]3C[C@H]43)nc2c1 (stereo in doubt; 12b) | MT2 | > 20 µM
COc1cccc2nc([C@H](Cc3cc(F)cc(F)c3)NC(=O)Cn3nc(C(F)F)c4c3C(F)(F)[C@@H]3C[C@H]43)n(-c3ccc(Cl)c4c(NS(C)(=O)=O)nn(C)c34)c(=O)c12 (stereo in doubt; 12d) | MT2 | > 20 µM

Now turn to the next compound.
Ask | Query for MT2: what CC50 does the record show for Cn1nc(NS(C)(=O)=O)c2c(Cl)ccc(-n3c([C@H](Cc4cc(F)cc(F)c4)NC(=O)Cn4nc(C(F)F)c5c4C(F)(F)[C@@H]4C[C@H]54)nc4ccccc4c3=O)c21 (stereo in doubt; 13a) ?
Reply | > 1 µM
